Biological target: T1, cynomolgus macaque (Macaca fascicularis) CD39 on cells (cynomolgus macaque (Macaca fascicularis), UniProt P49961 7-510 (human entry))
T1 construct: CHO cells engineered to express cyno CD39, or primary cyno B cells and monocytes; also called cyno CD39; cCD39
T1 chain: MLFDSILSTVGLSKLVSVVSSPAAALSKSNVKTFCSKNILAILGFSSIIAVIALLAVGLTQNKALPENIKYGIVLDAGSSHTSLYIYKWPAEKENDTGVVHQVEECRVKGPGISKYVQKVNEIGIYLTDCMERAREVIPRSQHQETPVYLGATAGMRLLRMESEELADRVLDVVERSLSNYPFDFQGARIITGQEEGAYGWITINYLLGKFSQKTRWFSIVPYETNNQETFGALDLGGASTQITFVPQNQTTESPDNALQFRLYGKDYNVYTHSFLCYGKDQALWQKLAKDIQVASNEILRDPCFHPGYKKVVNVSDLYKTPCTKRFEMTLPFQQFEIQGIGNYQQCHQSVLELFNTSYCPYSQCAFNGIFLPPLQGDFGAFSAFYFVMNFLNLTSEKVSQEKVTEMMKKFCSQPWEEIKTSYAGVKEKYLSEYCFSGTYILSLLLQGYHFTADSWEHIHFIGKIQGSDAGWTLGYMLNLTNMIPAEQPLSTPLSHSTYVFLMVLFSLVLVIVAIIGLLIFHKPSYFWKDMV
Assay: flow cytometry, 100 nM IgG, cCD39-CHO cells; MFI ratio to parental CHO
OBSERVABLE: Cell Binding (FOB)
One number for each entry, in FOB.

27596 (antibody, V domains shown) VH: QVQLVQSGAEVKKPGSSVKVSCKASGGTFSSYAISWVRQAPGQGLEWMGGIIPIFGTANYAQKFQGRVTITADESTSTAYMELSSLRSEDTAVYYCARDPLGIRKHWFDPWGQGTLVTVSS VL: EIVMTQSPATLSLSPGERATLSCRASQSVSSYLAWYQQKPGQAPRLLIYDASNRATGIPARFSGSGSGTDFTLTISSLEPEDFAVYYCQQHTVWPITFGGGTKVEIKR yielded Cell Binding (FOB) of 257

meta.source: patent US20250026850A1
